Experiment: qHTS RealTime-Glo MT Cell Viability Assay in HEK293 cells - 32 hour (AID 1224868); further: nearly all actives have a fitted effect of over 50% in size; further: potency means the concentration at half of the fitted maximal effect
Settings: RealTime-Glo luminescence; series mostly up to 76.8 µM
Records with an inconclusive call do not appear. Active and inactive are the calls of the source. The call rests on the fitted dose curve; in most records, active means well fitted cell-killing curve with a large enough effect in the repeat runs; inconclusive means weak or mixed curves, or effect the other way; inactive means flat fitted curve, though single readings scatter.
Value Type: Potency

Examples from the recorded data:
CC(C)(C)CC(=O)OCC(=O)[C@@]1(O)CC[C@H]2[C@@H]3CCC4=CC(=O)C=C[C@]4(C)[C@H]3[C@@H](O)C[C@@]21C	19 µM (active)
NCCNCCO	inactive
CCCCCCC(C)(C)C(=O)O	inactive
Clc1ccc(Nc2nnc(Cc3ccncc3)c3ccccc23)cc1	21.3 µM (active)
CC(C)C[C@H](NC(=O)[C@H](CCc1ccccc1)NC(=O)CN1CCOCC1)C(=O)N[C@@H](Cc1ccccc1)C(=O)N[C@@H](CC(C)C)C(=O)[C@@]1(C)CO1	0.0379 µM (active)
Oc1cccc(Nc2ccccc2)c1	14.4 µM (active)
C=C1C[C@@]23CC[C@H]4[C@@](C)(CCC[C@@]4(C)C(=O)O[C@@H]4O[C@H](CO)[C@@H](O)[C@H](O)[C@H]4O)[C@@H]2CC[C@]1(O[C@@H]1O[C@H](CO)[C@@H](O)[C@H](O[C@@H]2O[C@H](CO)[C@@H](O)[C@H](O)[C@H]2O)[C@H]1O[C@@H]1O[C@H](CO)[C@@H](O)[C@H](O)[C@H]1O)C3	inactive

// query For the compound C=C(C)C(=O)OCCCCCCCCCCCCC , what Potency is on record?
// result inactive

* * *

Test: qHTS assay to identify small molecule antagonists of the estrogen receptor beta (ER-beta) signaling pathway - cell viability counter screen (AID 1259382);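 further: HEK293T cells carrying ER-beta-UAS-bla reporter stimulated with estradiol; nearly all actives have a fitted effect of over 55% in size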
Conditions: ER-beta-UAS-bla HEK293T viability, CellTiter-Glo luminescence, 16 h; series mostly up to 92.4 µM
Inconclusive results are not listed. The source made the active and inactive calls. Calls come from the whole dose curve; as a rule, active = well fitted cell-killing curve with a large enough effect in the repeat runs; inconclusive = weak or mixed curves; inactive = flat fitted curve, though single readings scatter.
Outcome field: choose from active, inactive

N#CCc1ccc(Cl)cc1Cl	inactive
C1COC1	inactive
O=C(OC(=O)c1ccccc1)c1ccccc1	inactive
CCn1cc(C(=O)O)c(=O)c2cc(F)c(N3CCNCC3)cc21	inactive
COC(=O)CCS	inactive

// query Answer briefly: the call reported for CCOC(=O)c1ccc(I)cc1 in this assay.
// result inactive

// query Answer briefly: the call reported for CN1CCCN=C1COC(=O)C(O)(c1ccccc1)C1CCCCC1 (configuration not stated) in this assay.
// result inactive

// query Answer briefly: the call reported for CC(C)=CCC/C(C)=C/CC/C(C)=C/C(=O)OCC(=O)[C@@]1(O)CC[C@H]2[C@@H]3CCC4=CC(=O)C=C[C@]4(C)[C@H]3[C@@H](O)C[C@@]21C in this assay.
// result inactive

// query Answer briefly: the call reported for CCOC(=O)/C=C/C(=O)OCC in this assay.
// result inactive

// query Answer briefly: the call reported for Oc1cc2c(cc1O)[C@H]1c3ccc(O)c(O)c3OC[C@@]1(O)C2 in this assay.
// result inactive

* * *

Molecular target: Aromatase (Homo sapiens) (UniProt P11511)
Sequence (P11511 whole entry, looked up): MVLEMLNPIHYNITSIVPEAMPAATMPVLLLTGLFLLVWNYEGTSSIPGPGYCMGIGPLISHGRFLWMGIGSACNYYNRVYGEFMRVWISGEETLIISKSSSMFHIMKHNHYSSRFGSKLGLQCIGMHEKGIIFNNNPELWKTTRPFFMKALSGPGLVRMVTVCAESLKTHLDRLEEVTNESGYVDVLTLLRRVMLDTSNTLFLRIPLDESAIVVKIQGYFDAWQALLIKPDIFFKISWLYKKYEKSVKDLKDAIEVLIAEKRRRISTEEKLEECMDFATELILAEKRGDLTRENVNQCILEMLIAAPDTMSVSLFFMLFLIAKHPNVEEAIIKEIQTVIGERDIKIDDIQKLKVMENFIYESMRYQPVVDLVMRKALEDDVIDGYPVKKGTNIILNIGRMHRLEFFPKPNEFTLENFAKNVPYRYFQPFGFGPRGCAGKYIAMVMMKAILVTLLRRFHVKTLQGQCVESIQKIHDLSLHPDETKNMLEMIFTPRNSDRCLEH
Assay: qHTS assay to identify aromatase inhibitors (AID 743083); further: nearly all actives have a fitted effect of over 55% in size
Details: MCF-7 aro ERE, testosterone-driven ERE luciferase, 24 h; series mostly up to 70.3 µM
Results filed as inconclusive are left out. The source made the active and inactive calls. The call rests on the fitted dose curve; in most records, active means well fitted inhibition curve with a large enough effect in the repeat runs; inconclusive means weak or mixed curves; inactive means no such curve, though single readings can be large or run the other way.
Outcome field: choose from active, inactive

# example entries with known answers
CC/C=C1/OC(=O)c2ccccc21	inactive
c1cc(N(CC2CO2)CC2CO2)ccc1Cc1ccc(N(CC2CO2)CC2CO2)cc1 (centres undefined)	active
C[C@@H](O)[C@H]1C(=O)N2C(C(=O)O)=C([C@H]3CCCO3)S[C@H]12	inactive
CC(C)=CC(=O)C=C(C)C	inactive
C=COCC(C)C	inactive
COc1ncnc(NS(=O)(=O)c2ccc(N)cc2)c1OC	inactive
C=C(C)CCCC(C)CCO (centres undefined)	inactive
CCN(CC)CCNC(=O)COc1ccc(OC)cc1	inactive

Next, consider the following compound.
// query Answer briefly: the call reported for Oc1cccc(Nc2ccccc2)c1 in this assay.
// result inactive

* * *

Assay: qHTS assay to identify small molecule antagonists of the TGF-beta/Smad signaling pathway - cell viability counter screen (AID 1346824); further: nearly all actives have a fitted effect of over 50% in size
Conditions: SBE-bla HEK293T viability, CellTiter-Glo luminescence; series mostly up to 76.8 µM
From the text: U.S. Tox21 Program National Center for Advancing Translational Sciences [NCATS] NIH Chemical Genomics Center [NCGC] U.S. Environmental Protection Agency [EPA] National Institutes of Environmental Health Sciences [NIEHS] National Toxicology Program [NTP] U.S. Food and Drug Administration [FDA] […]
Inconclusive results are not listed. The source made the active and inactive calls. The call rests on the fitted dose curve; in most records, active means well fitted cell-killing curve with a large enough effect in the repeat runs; inconclusive means weak or mixed curves; inactive means flat fitted curve, though single readings scatter.
Value Type: outcome

Examples from the recorded data:
CC(C)(c1ccccc1)c1ccccc1	inactive
C[C@@H](O)[C@H]1C(=O)N2C(C(=O)O)=C([C@H]3CCCO3)S[C@H]12	inactive
CC(CC1c2ccccc2CCc2ccccc21)CN(C)C (stereo unspecified)	inactive
Cc1cc(C)cc(N)c1	inactive
CC(=O)[C@H]1[C@H](C#N)C[C@H]2[C@@H]3CC=C4C[C@@H](O)CC[C@]4(C)[C@H]3CC[C@@]21C	inactive

Consider the additional compound presented here.
// query For the compound O=C(OCC(O)CO)c1ccccc1Nc1ccnc2cc(Cl)ccc12 (stereo unspecified) , what outcome is on record?
// result inactive

* * *

Test: Caspase-3/7 induction in HepG2 cells by small molecules, qHTS assay (AID 1346978); further: nearly all actives have a fitted effect of over 15% in size
Conditions: HepG2 caspase-3/7 activation, Caspase-Glo luminescence, 17 h; series mostly up to 92.4 µM
Results filed as inconclusive are left out. Calls of active or inactive are those of the source. The call rests on the fitted dose curve; in most records, active means well fitted activation curve with a large enough effect in the repeat runs; inconclusive means weak or mixed curves; inactive means flat fitted curve, though single readings scatter.
Outcome field: choose from active, inactive

Oc1cccc(Nc2ccccc2)c1	inactive

Next, consider the following compound.
// query Answer briefly: the call reported for C=C(C)C(=O)OCCCCCCCCCCCCC in this assay.
// result inactive

* * *

Test: qHTS assay to identify small molecule agonists of the androgen receptor (AR) signaling pathway in the presence of an antagonist - cell viability counter screen (AID 1259379); further: nearly all actives have a fitted effect of over 25% in size
Settings: MDA-kb2 viability, CellTiter-Fluor, 16 h; series mostly up to 92.4 µM
Text: National Center for Advancing Translational Sciences [NCATS] NIH Chemical Genomics Center [NCGC] U.S. Environmental Protection Agency [EPA] National Institutes of Environmental Health Sciences [NIEHS] National Toxicology Program [NTP] U.S. Food and Drug Administration [FDA] Androgen receptor (AR) is an important member of nuclear receptor family. Its signaling plays a critical role in AR-dependent prostate cancer and other androgen related diseases. […]
Inconclusive results are not listed. The source made the active and inactive calls. Calls come from the whole dose curve; as a rule, active = well fitted cell-killing curve with a large enough effect in the repeat runs; inconclusive = weak or mixed curves, or effect the other way; inactive = flat fitted curve, though single readings scatter.
Outcome field: choose from 1 = active, -1 = inactive

// query Answer briefly: the call reported for Cc1ccc2c(Br)cc(Br)c(O)c2n1 in this assay.
// result -1

// query Answer briefly: the call reported for CC(=O)Nc1cc(S(=O)(=O)O)cc2cc(S(=O)(=O)O)c(N=Nc3ccccc3)c(O)c12 in this assay.
// result 1

// query Answer briefly: the call reported for CC(C)(C)C(=O)C(=O)O in this assay.
// result -1

* * *

Assay: qHTS assay to identify small molecule agonists of the estrogen related receptor signaling pathway with the pleiotropic PPARgamma coactivator (PGC) from Tox21 10K library (AID 1224842); further: nearly all actives have a fitted effect of over 15% in size
Conditions: PGC/ERR reporter cell line, luciferase ONE-Glo, 18 h; series mostly up to 92.4 µM
Records with an inconclusive call do not appear. The source made the active and inactive calls. Calls come from the whole dose curve; as a rule, active = well fitted activation curve with a large enough effect in the repeat runs; inconclusive = weak or mixed curves, or effect the other way; inactive = no such curve, though single readings can be large or run the other way.
Outcome field: choose from active, inactive

COC(=O)[C@H]1[C@H]2C[C@@H]3c4[nH]c5cc(OC)ccc5c4CCN3C[C@H]2C[C@@H](OC(=O)/C=C/c2ccc(O)c(OC)c2)[C@@H]1OC	inactive
O=C1Cc2cc(Cl)ccc2N1	inactive
CN(C)CCC=C1c2ccccc2C=Cc2ccccc21	inactive
CC(=O)N/N=C/c1ccc([N+](=O)[O-])o1	inactive

// query Answer briefly: the call reported for CC1(C)[C@H](C(=O)O)N2C(=O)C[C@H]2S1(=O)=O in this assay.
// result inactive

// query Answer briefly: the call reported for Cc1cccc(N(C)C(=S)Oc2ccc3c(c2)CCC3)c1 in this assay.
// result inactive

// query Answer briefly: the call reported for CC1=Nc2ccc3ccccc3c2C1(C)C in this assay.
// result inactive

// query Answer briefly: the call reported for CC(C)c1nc(CN(C)C(=O)N[C@H](C(=O)N[C@@H](Cc2ccccc2)C[C@H](O)[C@H](Cc2ccccc2)NC(=O)OCc2cncs2)C(C)C)cs1 in this assay.
// result inactive

* * *

Target: Nuclear receptor subfamily 1 group I member 3 (Homo sapiens) (UniProt Q14994)
Sequence (Q14994 whole entry, looked up): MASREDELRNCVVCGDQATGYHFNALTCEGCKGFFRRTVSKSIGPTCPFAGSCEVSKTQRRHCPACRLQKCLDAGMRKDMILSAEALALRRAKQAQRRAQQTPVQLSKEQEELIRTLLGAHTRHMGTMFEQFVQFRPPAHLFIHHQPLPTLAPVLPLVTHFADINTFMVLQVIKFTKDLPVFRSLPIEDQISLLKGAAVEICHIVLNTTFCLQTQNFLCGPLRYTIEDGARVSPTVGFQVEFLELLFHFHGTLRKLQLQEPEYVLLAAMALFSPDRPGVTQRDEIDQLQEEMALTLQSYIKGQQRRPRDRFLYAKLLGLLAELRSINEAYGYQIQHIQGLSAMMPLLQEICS
Assay: qHTS assay to identify small molecule antagonists of the constitutive androstane receptor (CAR) signaling pathway (AID 1224838);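 further: HepG2 cells stably expressing hCAR with CYP2B6 luciferase reporter stimulated by CITCO; nearly all actives have a fitted effect of over 40% in size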
Settings: HepG2-CYP2B6-hCAR luciferase, CITCO-stimulated, 24 h; series mostly up to 92.4 µM
Inconclusive results are not listed. Calls of active or inactive are those of the source. Calls follow the shape of the dose curve; as a rule, active = well fitted inhibition curve with a large enough effect in the repeat runs; inconclusive = weak or mixed curves, or effect the other way; inactive = no such curve, though single readings can be large or run the other way.
Value Type: outcome

Examples from the recorded data:
O=C(O)c1cccc(-c2noc(-c3ccccc3F)n2)c1	inactive
Nc1ncnc2c1ncn2[C@H]1CC[C@@H](CO)O1	inactive
O=C1c2ccccc2C(=O)c2c(O)c(O)cc(O)c21	inactive
CCCCN1CCCC1C(=O)Nc1c(C)cc(C)cc1C (configuration not stated)	inactive
NC(=O)c1ccncc1	inactive

// query For the compound O=C1NCCN1CCO , what outcome is on record?
// result inactive

// query For the compound O=C=Nc1ccc(Cl)c(Cl)c1 , what outcome is on record?
// result inactive
